tested on: A549; assay: Antiproliferative activity against human A549 cells using 1% DMSO/water compound formulation after 72 hrs by MTT assay; assay type: functional, cell-based; settings: A549, 72 h
ASSAY_ENDPOINT: pIC50
Note on pIC50: it is the negative log10 of concentration, concentration in mol/L.

Below, each entry is followed by its recorded pIC50 result.
STRUCTURE_STRING	NUMERIC_READOUT
Clc1c(Cl)[n+](Cc2ccc3ccccc3c2)cn1Cc1ccc2ccccc2c1	5.05
CC(C)c1n(Cc2ccc3ccccc3c2)cc[n+]1Cc1ccc2ccccc2c1.[Br-]	5.60
CCCc1n(Cc2ccc3ccccc3c2)cc[n+]1Cc1ccc2ccccc2c1.[Br-]	5.53
CCCCc1n(Cc2ccc3ccccc3c2)cc[n+]1Cc1ccc2ccccc2c1.[Br-]	5.46
CCc1n(Cc2ccc3ccccc3c2)cc[n+]1Cc1ccc2ccccc2c1.[Br-]	5.58

Reported pIC50 of Cc1n(Cc2ccc3ccccc3c2)cc[n+]1Cc1ccc2ccccc2c1.[Br-] : 5.47
